Molecular target: 5-HT1A receptors (Rattus norvegicus)
Sequence (P19327 whole entry): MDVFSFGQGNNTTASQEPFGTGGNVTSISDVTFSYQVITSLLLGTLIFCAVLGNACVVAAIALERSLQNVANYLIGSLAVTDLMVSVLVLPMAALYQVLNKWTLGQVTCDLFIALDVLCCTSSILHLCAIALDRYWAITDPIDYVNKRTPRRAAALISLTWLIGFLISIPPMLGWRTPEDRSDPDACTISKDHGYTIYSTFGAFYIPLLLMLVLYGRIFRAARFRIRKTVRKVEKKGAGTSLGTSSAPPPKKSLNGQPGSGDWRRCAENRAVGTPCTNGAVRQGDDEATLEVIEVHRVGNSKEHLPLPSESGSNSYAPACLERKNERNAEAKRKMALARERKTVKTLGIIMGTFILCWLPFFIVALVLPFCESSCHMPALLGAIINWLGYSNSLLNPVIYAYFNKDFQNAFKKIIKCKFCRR
Test: Corticosterone secretion (CS), plasma, agonist and antagonist activity
Type: in vivo, male Wistar rats
Parameters: from tissue; host or cells: whole animal, male Wistar rat (in vivo)
Settings: rat, sc, 1 h; antagonist: inhibition of CS induced by 8-OH-DPAT 0.16 mg/kg s.c.; compound s.c. 60 min before test; read-out: Corticosterone secretion ID50 (95% C.L.)
Threshold 2 mg/kg: ED50 strictly smaller gives yes (1), otherwise no (0).

Prompt line: Does c1ccc2c(c1)CC2CCN1CCN(c2cccc3c2OCCO3)CC1 (racemic) [Example 2] have ED50 strictly under 2 mg/kg?
Response line: yes (1)

Prompt line: # strict comparison: is reported ED50 < 2 mg/kg? input = c1ccc2c(c1)CCC2CN1CCN(c2cccc3c2OCCO3)CC1 (racemic) [Example 15]
Response line: no (0)

Prompt line: I'd appreciate it if you could check whether c1ccc2c(c1)CC2CCN1CCN(c2cccc3c2OCCCO3)CC1 (racemic) [Example 3] has ED50 smaller than 2 mg/kg.
Response line: no (0)

Prompt line: Hi there! Is ED50 for c1ccc2c(c1)CC(N1CCN(c3cccc4c3OCCO4)CC1)C2 [Example 7] below 2 mg/kg, do you know?
Response line: no (0)

Prompt line: Say whether its ED50 is strictly beneath 2 mg/kg. Entry: c1ccc2c(c1)CCC2CCN1CCN(c2cccc3c2OCCO3)CC1 (racemic) [Example 22]
Response line: yes (1)

Prompt line: # check: ED50 < 2 mg/kg for c1ccc2c(c1)CC(N1CCN(c3cccc4c3OCCCO4)CC1)C2 [Example 9]
Response line: no (0)

Prompt line: Quick check: does O=C1CC2(CCCC2)CC(=O)N1CCCCN1CCN(c2ncccn2)CC1 [buspirone, reference compound] have ED50 under 2 mg/kg?
Response line: no (0)

Prompt line: Here's an entry: c1ccc2c(c1)CC(CN1CCN(c3cccc4c3OCCO4)CC1)C2 [Example 14] . Is its ED50 below 2 mg/kg?
Response line: no (0)

Prompt line: Quick check: ED50 of c1ccc2c(c1)CC2CCCN1CCN(c2cccc3c2OCCO3)CC1 (racemic) [Example 13] under 2 mg/kg?
Response line: yes (1)

====

Target: 5-HT1A receptors (Rattus norvegicus)
Assay: Spontaneous tail flick test (STF), agonist and antagonist activity
Assay type: in vivo, male Wistar rats
Set-up: from tissue; host or cells: whole animal, male Wistar rat (in vivo)
Conditions: rat, sc, 1 h; antagonist: inhibition of STF induced by 8-OH-DPAT 0.63 mg/kg s.c.; compound s.c. 60 min before test; read-out: Spontaneous tail flicks ID50 (95% C.L.)
Can you tell me ED50 for the items I'm about to list?
Give the value in mg/kg but do not write mg/kg after it.

The measured ED50 associated with c1ccc2c(c1)CC(CN1CCN(c3cccc4c3OCCO4)CC1)C2 [Example 14] reads 0.19

What the record says about c1ccc2c(c1)CCC2CN1CCN(c2cccc3c2OCCO3)CC1 (racemic) [Example 15] : ED50 is 0.085

Short answer for c1ccc2c(c1)CC2CCN1CCN(c2cccc3c2OCCO3)CC1 (racemic) [Example 2] : ED50 was 0.085

Measured ED50, c1ccc2c(c1)CC(N1CCN(c3cccc4c3OCCO4)CC1)C2 [Example 7] : 0.74

Memo: c1ccc2c(c1)CCC2CCN1CCN(c2cccc3c2OCCO3)CC1 (racemic) [Example 22] , reported ED50: 0.74

ED50 recorded for this molecule, O=C1CC2(CCCC2)CC(=O)N1CCCCN1CCN(c2ncccn2)CC1 [buspirone, reference compound] , is 3.71

Lab book: ED50 of c1ccc2c(c1)CC2CCCN1CCN(c2cccc3c2OCCO3)CC1 (racemic) [Example 13] noted as 0.13

Record summary for c1ccc2c(c1)CC(N1CCN(c3cccc4c3OCCCO4)CC1)C2 [Example 9] : reported ED50 = 1.59

Short answer for c1ccc2c(c1)CC2CN1CCN(c2cccc3c2OCCO3)CC1 (racemic) [Example 1] : ED50 was 0.09

The measured ED50 associated with c1ccc2c(c1)CC2CCN1CCN(c2cccc3c2OCCCO3)CC1 (racemic) [Example 3] reads 0.32

The reported ED50 of the molecule c1ccc2c(c1)CCC2CCCN1CCN(c2cccc3c2OCCO3)CC1 (racemic) [Example 23] was 0.56

response.value for c1ccc2c(c1)CC(CCN1CCN(c3cccc4c3OCCO4)CC1)C2 [Example 20] (field: ED50) = 0.18
